Taken from patent US12655116B2.

system: STEME; assay: Post-emergence herbicidal action against STEME; format: in vivo, Stellaria media; details: Stellaria media, 504 h, 20 g/ha
assay.metric: pest or weed control at 20 g/ha (%)
Give bare numbers, in %.

Here are 7 compounds together with their reported answers.
## Input Name the value of pest or weed control at 20 g/ha reported for CCNC(=O)c1c(C(F)(F)F)ccc(C(=O)Nc2nnnn2C)c1Cl when tested on STEME.
## Output 80

## Input Name the value of pest or weed control at 20 g/ha reported for CCn1nnnc1NC(=O)c1ccc(C(F)F)c(C(=O)NC2CC2)c1Cl when tested on STEME.
## Output 90

## Input Name the value of pest or weed control at 20 g/ha reported for CCNC(=O)c1c(C(F)F)ccc(C(=O)Nc2nnnn2C)c1Cl when tested on STEME.
## Output 90

## Input Name the value of pest or weed control at 20 g/ha reported for CCNC(=O)c1c(C(F)(F)F)ccc(C(=O)Nc2nnnn2CC)c1Br when tested on STEME.
## Output 100

## Input Name the value of pest or weed control at 20 g/ha reported for CCCn1nnnc1NC(=O)c1ccc(C(F)(F)F)c(C(N)=O)c1Cl when tested on STEME.
## Output 100

## Input Name the value of pest or weed control at 20 g/ha reported for CCNC(=O)c1c(C(F)(F)F)ccc(C(=O)Nc2nnnn2CC)c1C when tested on STEME.
## Output 90

## Input Name the value of pest or weed control at 20 g/ha reported for Cc1c(C(=O)Nc2nnnn2C)ccc(C(F)(F)F)c1C(=O)NC1CC1 when tested on STEME.
## Output 100

***
## Input Name the value of pest or weed control at 20 g/ha reported for CCNC(=O)c1c(C(F)(F)F)ccc(C(=O)Nc2nnnn2C)c1SC when tested on STEME.
## Output 90
